- test_target: mPGES-1 (Homo sapiens (Human), UniProt O14684)
- Sequence (O14684 whole entry): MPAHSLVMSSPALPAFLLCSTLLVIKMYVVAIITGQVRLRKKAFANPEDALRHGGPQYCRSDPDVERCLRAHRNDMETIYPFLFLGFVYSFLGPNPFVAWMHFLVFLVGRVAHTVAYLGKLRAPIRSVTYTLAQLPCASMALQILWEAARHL
- assay_info: A549 cell-based assay (PGE2 formation, IL-1β stimulated, 50% human serum)
- condition_label: A549 cells, IL-1β 5 ng/ml, read-out: mPGES-1 inhibitory effect in the cell assay, IC50
# maps each entry to its pIC50
Please keep in mind that pIC50 is minus log10 of the molar concentration; only the number is needed.

1) Cn1c(Nc2c(F)ccc(CNC(=O)C(C)(C)C)c2F)nc2cc(C(=O)N[C@H]3CC[C@H](C(F)(F)F)CC3)c(OCC(F)F)cc21	8.05
2) Cn1c(Nc2c(Cl)ccc(CNC(=O)c3cc[nH]n3)c2Cl)nc2cc(C(=O)NCC(F)(F)F)c(OCC(F)F)cc21	7.07
3) CC1CCCN1C(=O)NCc1ccc(Cl)c(Nc2nc3cc(C(=O)N[C@H]4CC[C@H](C(F)(F)F)CC4)c(OCC(F)F)cc3n2C)c1Cl (stereo partly drawn)	7.37
4) Cn1c(Nc2c(F)ccc(CNC(=O)C(C)(C)C)c2F)nc2cc(C(=O)NCC(F)(F)F)c(OCC(F)F)cc21	6.91
5) CC(C)(C)C(=O)NCc1ccc(Cl)c(Nc2nc3cc(C(=O)Nc4ccc(Br)cc4)c(OCC(F)F)cc3[nH]2)c1Cl	8.70
6) Cc1cc(Cl)cnc1NC(=O)c1cc2nc(Nc3c(Cl)ccc(CNC(=O)C(C)(C)C)c3Cl)n(C)c2cc1OCC(F)F	9.00

Value of pIC50 reported for the compound Cn1c(Nc2c(Cl)ccc(CNC(=O)c3ccno3)c2Cl)nc2cc(C(=O)Nc3ccc(F)c(Cl)c3)c(OCC(F)F)cc21 is 8.15

Value of pIC50 reported for the compound Cc1cc(C#N)c(NC(=O)c2cc3nc(Nc4c(Cl)ccc(CNC(=O)C(C)(C)C)c4Cl)n(C)c3cc2OCC(F)F)s1 is 9.00

Value of pIC50 reported for the compound Cn1c(Nc2c(Cl)ccc(CNC(=O)C(C)(C)C)c2Cl)nc2cc(C(=O)NCCC(F)(F)F)c(OCC(F)F)cc21 is 9.00

Value of pIC50 reported for the compound Cn1c(Nc2c(Cl)ccc(CNC(=O)C(C)(C)C)c2Cl)nc2cc(C(=O)Nc3cc(C(F)(F)F)ccn3)c(OCC(F)F)cc21 is 9.00

###

# maps each entry to its pIC50
- test_target: mPGES-1 (Homo sapiens (Human))
- assay_info: A549 cell-based assay (PGE2 formation, IL-1β stimulated, 50% human serum)
- condition_label: A549 cells, IL-1β 5 ng/ml, read-out: mPGES-1 inhibitory effect in the cell assay, IC50
Please keep in mind that pIC50 is minus log10 of the molar concentration; only the number is needed.

For orientation, consider the following solved cases.
1) Cn1c(Nc2c(Cl)ccc(CNC(=O)C(C)(C)C)c2Cl)nc2cc(C(=O)Nc3ccc(F)c(F)c3)c(OCC(F)F)cc21 [Example 74]	9.00
2) Cn1c(Nc2c(Cl)ccc(CNC(=O)C3CCCO3)c2Cl)nc2cc(C(=O)NCC(F)(F)F)c(OCC(F)F)cc21 (stereo not drawn) [Example 90]	7.44
3) Cn1c(Nc2c(Cl)ccc(CNC(=O)C(C)(C)C)c2Cl)nc2cc(C(=O)NCC3CC3(Cl)Cl)c(OCC(F)F)cc21 (stereo not drawn) [Example 44]	9.00
4) Cn1c(Nc2c(Cl)ccc(CNC(=O)C3CC3(F)F)c2Cl)nc2cc(C(=O)Nc3ccc(F)c(Cl)c3)c(OCC(F)F)cc21 (stereo not drawn) [Example 153]	8.52

We next turn to a different compound, shown below.
Value of pIC50 reported for the compound CCCC(=O)NCc1ccc(Cl)c(Nc2nc3cc(C(=O)Nc4ccc(F)c(Cl)c4)c(OCC(F)F)cc3n2C)c1Cl [Example 132] is 8.70

###

- test_target: UniProt O14684
- assay_info: mPGES-1 enzyme assay (HTRF detection of PGE2)
- Assay type: biochemical
- condition_label: recombinant human mPGES-1 microsomes, PGH2 2 μM; read-out: mPGES-1 inhibitory effect in the enzyme assay, IC50
measured_endpoint: pIC50
Please keep in mind that pIC50 is minus log10 of the molar concentration; only the number is needed.

1) Cc1ccc(CNC(=O)C(C)(C)C)c(C)c1Nc1nc2cc(C(=O)N[C@H]3CC[C@H](C(F)(F)F)CC3)c(OCC(F)F)cc2n1C [Example 14]	9.00
2) Cn1c(Nc2c(Cl)ccc(CNC(=O)C(C)(C)C)c2Cl)nc2cc(C(=O)Nc3cc(C(F)(F)F)ccn3)c(OCC(F)F)cc21 [Example 67]	8.70
3) Cn1c(Nc2c(Cl)ccc(CNC(=O)OC(C)(C)C)c2Cl)nc2cc(C(=O)N[C@H]3CC[C@H](C(F)(F)F)CC3)c(OCC(F)F)cc21 [Example 13]	8.52
4) Cn1c(Nc2c(Cl)ccc(CNC(=O)C(C)(C)C)c2Cl)nc2cc(C(=O)Nc3cccc(Cl)c3)c(F)cc21 [Example 18]	9.00
5) CC(C)(C)C(=O)NCc1ccc(Cl)c(Nc2nc3cc(C(=O)N[C@H]4CC[C@H](C(F)(F)F)CC4)c(OCC(F)F)cc3[nH]2)c1Cl [Example 2]	8.70
6) Cn1c(Nc2c(Cl)ccc(CNC(=O)C(C)(C)C)c2Cl)nc2cc(C(=O)Nc3nc4ccc(Cl)cc4s3)c(OCC(F)F)cc21 [Example 34]	8.40

Value of pIC50 reported for the compound Cn1c(Nc2c(Cl)ccc(CNC(=O)C(C)(C)C)c2Cl)nc2cc(C(=O)N[C@H]3CC[C@H](C(F)F)CC3)c(OCC(F)F)cc21 [Example 68] is 8.70

Value of pIC50 reported for the compound Cn1c(Nc2c(Cl)ccc(CNC(=O)C(C)(C)C)c2Cl)nc2cc(C(=O)NCC(F)(F)F)c(OCC(F)F)cc21 [Example 58] is 8.52

Value of pIC50 reported for the compound Cn1c(Nc2c(Cl)ccc(CNC(=O)C(C)(C)C)c2Cl)nc2cc(C(=O)Nc3ccc4c(c3)CCC4)c(OCC(F)F)cc21 [Example 59] is 8.40

Value of pIC50 reported for the compound Cn1c(Nc2c(Cl)ccc(CNC(=O)C(C)(C)C)c2Cl)nc2cc(C(=O)NCC3CC3(Cl)Cl)c(OCC(F)F)cc21 (stereo not shown) [Example 44] is 8.52

Value of pIC50 reported for the compound Cn1c(Nc2c(Cl)ccc(CNC(=O)C(C)(C)C)c2Cl)nc2cc(C(=O)Nc3c(F)ccc(F)c3F)c(OCC(F)F)cc21 [Example 85] is 9.00

Value of pIC50 reported for the compound Cn1c(Nc2c(Cl)ccc(CNC(=O)C(C)(C)C)c2Cl)nc2cc(C(=O)NCC3CC3)c(OCC(F)F)cc21 [Example 53] is 8.40

###

- test_target: mPGES-1 (Homo sapiens (Human))
- assay_info: mPGES-1 enzyme assay (HTRF detection of PGE2)
- Format: biochemical
- condition_label: recombinant human mPGES-1 microsomes, PGH2 2 μM; read-out: mPGES-1 inhibitory effect in the enzyme assay, IC50
// classify: if (IC50 < 2 nM) T else F

Reference set, count: 3
1) Cn1c(Nc2c(Cl)ccc(CNC(=O)C(C)(C)C)c2Cl)nc2cc(C(=O)NCC(F)(F)C(F)(F)F)c(OCC(F)F)cc21 [Example 38]	F
2) Cn1c(Nc2c(Cl)ccc(CNC(=O)C(C)(C)C)c2Cl)nc2cc(C(=O)Nc3ccc(C(F)(F)F)nc3)c(OCC(F)F)cc21 [Example 47]	F
3) COCC1(CNC(=O)c2cc3nc(Nc4c(Cl)ccc(CNC(=O)C(C)(C)C)c4Cl)n(C)c3cc2OCC(F)F)CCCC1 [Example 49]	F

q: Is it true that IC50 reported for Cn1c(Nc2c(Cl)ccc(CNC(=O)C(C)(C)C)c2Cl)nc2cc(C(=O)Nc3nc(C(F)(F)F)cs3)c(F)cc21 [Example 70] is less than 2 nM?
a: F

q: Is it true that IC50 reported for Cn1c(Nc2c(Cl)ccc(CNC(=O)C(C)(C)C)c2Cl)nc2cc(C(=O)Nc3cccc(F)c3)c(OCC(F)F)cc21 [Example 31] is less than 2 nM?
a: F

q: Is it true that IC50 reported for Cn1c(Nc2c(Cl)ccc(CNC(=O)C(C)(C)C)c2Cl)nc2cc(C(=O)NCC(F)F)c(OCC(F)F)cc21 [Example 43] is less than 2 nM?
a: F

q: Is it true that IC50 reported for Cn1c(Nc2c(Cl)ccc(CNC(=O)C(C)(C)C)c2Cl)nc2cc(C(=O)NC[C@@H]3CCCO3)c(OCC(F)F)cc21 [Example 37] is less than 2 nM?
a: F

q: Is it true that IC50 reported for Cn1c(Nc2c(Cl)ccc(CNC(=O)C(C)(C)C)c2Cl)nc2cc(C(=O)Nc3ccc(F)c(Cl)c3)c(OC3CCOC3)cc21 (stereo not shown) [Example 179] is less than 2 nM?
a: T

q: Is it true that IC50 reported for CC1CCCN1C(=O)NCc1ccc(Cl)c(Nc2nc3cc(C(=O)N[C@H]4CC[C@H](C(F)(F)F)CC4)c(OCC(F)F)cc3n2C)c1Cl (stereo partly shown) [Example 82] is less than 2 nM?
a: T

q: Is it true that IC50 reported for Cn1c(Nc2c(Cl)ccc(CNC(=O)C(C)(C)C)c2Cl)nc2cc(C(=O)NCCc3ccccc3)c(OCC(F)F)cc21 [Example 57] is less than 2 nM?
a: F

q: Is it true that IC50 reported for Cn1c(Nc2c(Cl)ccc(CNC(=O)OC(C)(C)C)c2Cl)nc2cc(C(=O)Nc3ccc(F)c(Cl)c3)c(OCC(F)F)cc21 [Example 15] is less than 2 nM?
a: F

q: Is it true that IC50 reported for Cn1c(Nc2c(Cl)ccc(CNC(=O)C(C)(C)C)c2F)nc2cc(C(=O)N[C@H]3CC[C@H](C(F)(F)F)CC3)c(OCC(F)F)cc21 [Example 76] is less than 2 nM?
a: F

q: Is it true that IC50 reported for Cn1c(Nc2c(Cl)ccc(CNC(=O)N3CC(F)(F)C3)c2Cl)nc2cc(C(=O)N[C@H]3CC[C@H](C(F)(F)F)CC3)c(OCC(F)F)cc21 [Example 80] is less than 2 nM?
a: T

q: Is it true that IC50 reported for Cn1c(Nc2c(Cl)ccc(CNC(=O)C(C)(C)C)c2Cl)nc2cc(C(=O)NCc3ccccc3C(F)(F)F)c(OCC(F)F)cc21 [Example 35] is less than 2 nM?
a: F
